- studyTarget: Recombinant human active heparanase (Homo sapiens, UniProt Q9Y251)
- Construct: Recombinant human active heparanase derived from Chinese hamster ovary cells; purchased R&D Systems; host or cells: Chinese hamster ovary cells
- Sequence (Q9Y251 158-543 limits assumed): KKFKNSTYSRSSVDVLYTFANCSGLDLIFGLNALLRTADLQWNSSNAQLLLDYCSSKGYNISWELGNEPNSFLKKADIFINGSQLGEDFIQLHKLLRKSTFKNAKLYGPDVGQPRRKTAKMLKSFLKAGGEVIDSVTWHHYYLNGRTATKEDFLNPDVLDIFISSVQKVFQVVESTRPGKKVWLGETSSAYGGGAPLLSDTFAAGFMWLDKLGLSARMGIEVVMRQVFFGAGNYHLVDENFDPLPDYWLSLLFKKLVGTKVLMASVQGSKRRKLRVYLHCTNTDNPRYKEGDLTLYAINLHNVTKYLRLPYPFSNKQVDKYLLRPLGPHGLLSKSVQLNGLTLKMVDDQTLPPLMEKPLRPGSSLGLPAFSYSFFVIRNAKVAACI
- Sequence (Q9Y251 36-109 limits assumed): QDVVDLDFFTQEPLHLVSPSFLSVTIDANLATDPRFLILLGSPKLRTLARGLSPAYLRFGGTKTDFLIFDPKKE
- assayName: Heparanase enzyme inhibition assay (fondaparinux substrate, WST-1 detection)
- Format: biochemical
- protocolConditions: IC50 heparanase inhibition by compounds of Formula 2-4, Table 4
readoutName: IC50 (µM)

givenSmiles	studyTarget	measurement
CCOC(=O)CSc1nc2cc(OC)c(OC)cc2c(=N)n1CCNC(=O)c1cc2ccccc2[nH]1	Recombinant human active heparanase (Homo sapiens, UniProt Q9Y251)	26.8

---

- studyTarget: Recombinant human active heparanase (Homo sapiens)
- Construct: Recombinant human active heparanase derived from Chinese hamster ovary cells; purchased R&D Systems; host or cells: Chinese hamster ovary cells
- assayName: Heparanase enzyme inhibition assay (fondaparinux substrate, WST-1 detection)
- Format: biochemical
- protocolConditions: Table 3; read-out: IC50 heparanase inhibition by compounds of Formula 1
pIC50: −log10 of the molar value. Where a name gives a salt, the structure may show the parent alone.
Quick list: pIC50 per entry.

compound	pIC50
COc1cc2nc(-c3cccc4cccnc34)nc(NCCc3ccccn3)c2cc1OC	4.96
COc1cc2nc(NCCNC(=N)N)nc(NCCc3c[nH]c4ccccc34)c2cc1OC	4.74
COc1cc2nc(NCCNC(=O)c3nnc(-c4cc5ccccc5[nH]4)o3)nc(N)c2cc1OC [BT-2173]	5.37
COC(=O)c1ccc2c(S(=O)(=O)NC3CN(c4nc(N)c5cc(OC)c(OC)cc5n4)C3)c[nH]c2c1	4.69
COc1cc2nc(N3CCN(C(=O)C4COc5ccccc5O4)CC3)nc(N)c2cc1OC (centres unmarked) [BT-2013, doxazosin mesylate, reference compound]	4.24
COc1cc2nc(-c3cccc4cccnc34)nc(NCCc3c[nH]c4ccccc34)c2cc1OC	6.00
COc1cc2nc(-c3cccc4cccnc34)nc(NC3CN(C(=O)c4cc5ccccc5[nH]4)C3)c2cc1OC	6.15
COc1cc2nc(-c3cccc4cccnc34)nc(NCCNC(=O)c3nnc(-c4ccccc4)o3)c2cc1OC	5.39
COc1cc2nc(-c3ccc4c(c3)OCCO4)nc(NCCc3c[nH]c4ccccc34)c2cc1OC	4.85
COc1cc2nc(-c3ccc4ccccc4c3)nc(NCCc3c[nH]c4ccccc34)c2cc1OC	4.25
COc1cc2nc(NCCNC(=O)c3nnc(-c4c[nH]c5ncccc45)o3)nc(N)c2cc1OC	4.68
COc1cc2nc(NCCc3ccccn3)nc(NCCc3c[nH]c4ccccc34)c2cc1OC	4.74
COc1cc2nc(NCCNC(=O)c3nnc(-c4ccccc4)o3)nc(NCCc3ccccc3)c2cc1OC	4.26
COc1cc2nc(NCCNC(=O)c3cc(-c4ccccc4)on3)nc(N)c2cc1OC	4.72
COc1cc2nc(N3CC(NC(=O)c4nnc(-c5ccccc5)o4)C3)nc(N)c2cc1OC	4.48
COc1cc2nc(-c3cccc4cccnc34)nc(NCCNC(=N)N)c2cc1OC	4.96
COc1cc2nc(-c3cncc4ccccc34)nc(NCCc3c[nH]c4ccccc34)c2cc1OC	4.03
COc1cc2nc(-c3cccc4cccnc34)nc(NCCNS(=O)(=O)c3ccccc3)c2cc1OC	5.47
COc1cc2nc(NCCNC(=O)c3nnc(-c4ccccc4)s3)nc(N)c2cc1OC	4.87
COc1cc2nc(-c3ccc4[nH]ccc4c3)nc(NCCc3c[nH]c4ccccc34)c2cc1OC	4.39
COc1cc2nc(-c3ccccc3CN3CCOCC3)nc(NCCc3c[nH]c4ccccc34)c2cc1OC	4.27
COc1cc2nc(NCCNC(=O)c3nnc(-c4cccc(F)c4)o3)nc(N)c2cc1OC	4.66
COc1cc2nc(NCCNC(=O)c3nnc(-c4cc5ccccc5[nH]4)o3)nc(N)c2cc1OC [BT-2169]	5.48
